# Tested on: CYP3A
# protocol-notes: Effect of CYP inhibitors on formation of GAA metabolites in HLMs
# Assay type: in vitro ADME
# experimental-conditions: human, human liver microsomes (HLMs), probe GAA (10 μM), formation of metabolite M2, HLMs 0.25 mg/ml, ketoconazole 10 μM, read-out: inhibition of the formation of M2 in HLMs
value-type: inhibition at 10 μM (%)
Please state the figure in %; there is no need to write the unit.

Looking for the measured inhibition at 10 μM of CC(=O)N1CCN(c2ccc(OCC3COC(Cn4ccnc4)(c4ccc(Cl)cc4Cl)O3)cc2)CC1 (stereo not shown) , can you help?
56

###

# System: rat liver microsomes (RLMs)
value-type: metabolite found in RLMs incubations

CC(CC(=O)CC(C)(O)C1CC(O)C2(C)C3=C(C(=O)CC12C)C1(C)CCC(=O)C(C)(C)C1CC3O)C(=O)O (centres unmarked) [Metabolite M11, 20-hydroxy ganoderic acid A]; found
CC(CC(=O)CC(C)C1CC(O)C2(C)C3=C(C(=O)C(O)C12C)C1(C)CCC(O)C(C)(C)C1CC3O)C(=O)O (centres unmarked) [Metabolite M15, 12-hydroxy ganoderic acid C2]; detected
CC(CC(=O)CC(C)C1CC(O)C2(C)C3=C(C(=O)CC12C)C1(C)CCC(O)C(C)(CO)C1CC3O)C(=O)O (centres unmarked) [Metabolite M13]; detected
CC(CC(=O)CC(C)C1CC(O)C2(C)C3=C(C(=O)C(O)C12C)C1(C)CCC(=O)C(C)(C)C1CC3O)C(=O)O (centres unmarked) [Metabolite M9, 12-hydroxy ganoderic acid A]; found
